The measured values listed here are drawn from patent US12370178B2.

# METHOD_NOTES: Healthy CD3+ T-cell cytotoxicity
# Format: cell-based, human
# PROTOCOL_CONDITIONS: human, healthy CD3+ T-cells, suspension culture; read-out: LC50 (the source's name)
QUANTITY_MEASURED: CC50 (µM)
Answer with a number only, understood to be in µM.

Lookup: Query: CC50; subject: `Cn1c(CCCCCCC(=O)NO)nc2cc(N(CCCl)CCCl)ccc21`
Found: 4.4
